- study_target: MST1 (Homo sapiens, UniProt Q13043)
- assay_summary: In vitro measurement of MST1 inhibition (Z′-Lyte kinase assay)
- Format: biochemical
- protocol_conditions: 1 μM ATP; read-out: IC50 (μM) 1 μM ATP
Below, each entry is listed alongside its reported IC50.

molecule	IC50
COC(=O)CN(C)S(=O)(=O)c1ccc(-c2cnc(N)c(-c3ccc4c(c3)CCNC4=O)c2)cc1	< 0.15 µM
CC1(C#N)CCc2cc(-c3cnc(N)c(-c4ccc5c(c4)CCNC5=O)n3)ccc21 (stereo not drawn)	< 0.05 µM
CN(C1CC1)S(=O)(=O)c1ccc(-c2cnc(N)c(-c3ccc4c(c3)CCCNC4=O)n2)cc1	< 0.01 µM
Nc1ncc(-c2ccc(S(=O)(=O)NC3CC3)cc2)cc1-c1ccc2c(c1)C1(CC1)CNC2=O	< 0.01 µM
CCNS(=O)(=O)c1ccc(-c2cnc(N)c(-c3ccc4c(c3)CCNC4=O)n2)cc1	< 0.01 µM
Nc1ncc(-c2ccc(F)cc2)nc1-c1cc2c(cn1)C(=O)NCC2	< 0.01 µM
CN(C1CC1)S(=O)(=O)c1ccc(-c2cnc(N)c(-c3ccc4c(c3)CCN(CCC#N)C4=O)c2)cc1	< 0.15 µM
CC(C)Oc1cc(-c2nc(-c3ccc(S(=O)(=O)N(C)C4CC4)cc3)cnc2N)ccc1C(N)=O	< 0.05 µM
Nc1ncc(-c2ccc(S(=O)(=O)NC3CC3)cn2)cc1-c1ccc2c(c1)CCNC2=O	< 0.01 µM
CN(C1CC1)S(=O)(=O)c1ccc(-c2cnc(N)c(-c3ccc4c(c3)CCCNC4=O)c2)cc1	< 0.01 µM
Nc1ncc(-c2ccc(F)cc2)cc1-c1ccc2c(c1)CCNC2=O	< 0.15 µM
CCN(CC)S(=O)(=O)c1ccc(-c2cnc(N)c(-c3ccc(C(N)=O)cn3)c2)cc1	< 0.05 µM
N#CC1(c2ccc(-c3cnc(N)c(-c4ccc5c(c4)C4(CC4)CNC5=O)c3)cc2)CCOCC1	< 0.01 µM
CN(C1CC1)S(=O)(=O)c1ccc(-c2cc(-c3ccc4c(c3)CCNC4=O)c(N)nn2)cc1	< 0.05 µM
[2H]C([2H])([2H])N(C1CC1)S(=O)(=O)c1ccc(-c2cnc(N)c(-c3ccc4c(c3)CCNC4=O)n2)nc1	< 0.01 µM
Nc1ncc(-c2ccc(S(=O)(=O)NC3CC3)cc2)nc1-c1ccc2c(c1)NCCNC2=O	< 0.01 µM
CCN(C)S(=O)(=O)c1ccc(-c2cnc(N)c(-c3ccc4c(c3)CCNC4=O)c2)nc1	< 0.01 µM
Nc1ncc(-c2ccc(C3(O)CCOCC3)cc2)nc1-c1ccc2c(c1)CCNC2=O	< 0.05 µM

* * *

Measured IC50 by item
- study_target: MST1 (Homo sapiens)
- assay_summary: In vitro measurement of MST1 inhibition (Z′-Lyte kinase assay)
- Format: biochemical
- protocol_conditions: 1 μM ATP; read-out: IC50 (μM) 1 μM ATP
readout_name: IC50

CN(C1CC1)S(=O)(=O)c1ccc(-c2cnc(N)c(-c3ccc4c(c3)CCNC4=O)c2)cn1 < 0.01 µM
CN(C1CC1)S(=O)(=O)c1ccc(-c2cnc(N)c(-c3ccc4c(c3)CCNC4=O)c2)nc1 < 0.01 µM
N#CC1(c2ccc(-c3cnc(N)c(-c4ccc5c(c4)CCCNC5=O)n3)cc2)CCOCC1 < 0.05 µM
N#CC1(c2ccc(-c3cnc(N)c(-c4ccc5c(c4)C4(CC4)NC5=O)n3)cc2)CC1 < 0.05 µM
Nc1ncc(-c2ccc3c(c2)CC(=O)N3)cc1-c1ccc2c(c1)CCNC2=O < 0.05 µM
CCN(C)S(=O)(=O)c1cnc(-c2cnc(N)c(-c3ccc4c(c3)CCNC4=O)n2)cc1C < 0.01 µM
CCS(=O)(=O)c1ccc(-c2cnc(N)c(-c3ccc4c(c3)CCNC4=O)c2)cc1 < 0.05 µM
N#CCn1cc(-c2cnc(N)c(-c3ccc4c(c3)CCNC4=O)n2)cn1 < 0.15 µM
CN(C1CC1)S(=O)(=O)c1ccc(-c2cnc(N)c(-c3ccc4c(c3)NCCNC4=O)c2)cc1 < 0.01 µM

* * *

- study_target: MST1 (Homo sapiens)
- assay_summary: In vitro measurement of MST1 inhibition (Z′-Lyte kinase assay)
- Format: biochemical
- protocol_conditions: 1 μM ATP; read-out: IC50 (μM) 1 μM ATP

compound	IC50
Nc1ncc(-c2ccc(S(=O)(=O)NC3CC3)cc2)cc1-c1ccc2c(c1)OCCNC2=O	< 0.01 µM
CNC1(c2ccc(-c3cnc(N)c(-c4ccc5c(c4)CCNC5=O)n3)cc2)CC1	< 0.01 µM
Nc1ncc(-c2ccc(F)cc2)cc1-c1cc2c(cn1)C(=O)NCC2	< 0.05 µM
CC1(C)C(=O)NC(=O)c2ccc(-c3nc(-c4ccc(S(=O)(=O)NC5CC5)cc4)cnc3N)cc21	< 0.15 µM
CN(C1CC1)S(=O)(=O)c1ccc(-c2cnc(N)c(C#Cc3ccnc(O)c3)n2)cc1	< 0.15 µM
NC(=O)c1ccc(-c2cc(-c3ccc(S(=O)(=O)NC4CC4)cc3)cnc2N)cc1	< 0.05 µM
Nc1ncc(-c2ccc(S(=O)(=O)NC3CC3)cc2)nc1-c1cc2c(cn1)C(=O)NCC2	< 0.01 µM
CN(C)S(=O)(=O)N1CC=C(c2cnc(N)c(-c3ccc4c(c3)CCNC4=O)c2)CC1	< 0.15 µM
Nc1ncc(-c2ccc(S(=O)(=O)NC3CC3)cc2)cc1-c1ccc2c(c1)C1(CC1)NC2=O	< 0.01 µM
Nc1ncc(-c2ccc(S(=O)(=O)NC3CC3)c(Cl)c2)cc1-c1ccc2c(c1)CCNC2=O	< 0.01 µM
N#CCc1ccc(-c2cnc(N)c(-c3ccc4c(c3)CCNC4=O)n2)s1	< 0.05 µM
Cc1ccc(-c2cnc(N)c(-c3ccc4c(c3)CCNC4=O)c2)s1	< 0.05 µM
NCC1CCC(NC(=O)c2nc(-c3ccc(S(=O)(=O)NC4CC4)cc3)cnc2N)CC1 (stereo not shown)	< 0.05 µM
CN(C1CC1)S(=O)(=O)c1ccc(-c2cnc(N)c(-c3ccc4c(c3)C3(CC3)CNC4=O)c2)cc1	< 0.01 µM
COC[C@H]1C[C@@H]1N(C)S(=O)(=O)c1ccc(-c2cnc(N)c(-c3ccc4c(c3)CCNC4=O)n2)nc1	< 0.15 µM
CN(C1CC1)S(=O)(=O)c1ccc(-c2cnc(N)c(-c3ccc4c(c3)OCCNC4=O)c2)cc1	< 0.01 µM
CCN(C)S(=O)(=O)c1ccc(-c2cnc(N)c(-c3ccc4c(c3)CCNC4=O)n2)cc1Cl	< 0.01 µM
CN(C1CC1)S(=O)(=O)c1ccc(-c2cnc(N)c(-c3ccc4c(c3)CCNC4=O)n2)cn1	< 0.05 µM
CCNS(=O)(=O)c1ccc(-c2cnc(N)c(C(=O)NC3CCCCC3)n2)cc1	< 0.15 µM

* * *

- study_target: MST1 (Homo sapiens, UniProt Q13043)
- Sequence (Q13043 1-487): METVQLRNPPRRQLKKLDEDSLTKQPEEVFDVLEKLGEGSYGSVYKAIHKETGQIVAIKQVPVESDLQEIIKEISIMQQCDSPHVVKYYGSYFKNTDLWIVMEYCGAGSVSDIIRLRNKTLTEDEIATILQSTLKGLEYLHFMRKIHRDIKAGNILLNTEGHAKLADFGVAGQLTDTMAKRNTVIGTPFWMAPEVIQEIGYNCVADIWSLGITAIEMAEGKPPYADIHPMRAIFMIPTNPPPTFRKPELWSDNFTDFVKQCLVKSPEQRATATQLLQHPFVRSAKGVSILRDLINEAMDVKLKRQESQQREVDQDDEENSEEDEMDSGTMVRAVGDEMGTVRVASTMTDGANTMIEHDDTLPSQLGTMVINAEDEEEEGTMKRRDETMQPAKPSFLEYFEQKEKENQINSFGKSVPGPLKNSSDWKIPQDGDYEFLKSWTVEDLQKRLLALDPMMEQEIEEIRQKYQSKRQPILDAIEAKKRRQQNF
- assay_summary: In vitro measurement of MST1 inhibition (Z′-Lyte kinase assay)
- Format: biochemical
- protocol_conditions: 50 μM ATP; read-out: IC50 (μM) 50 μM ATP
Listed here: items and their measured IC50.
readout_name: IC50

molecule	study_target	readout_name	result
CC1(C)CNC(=O)c2ccc(-c3cc(-c4ccc(C5(C#N)CCOCC5)cc4)cnc3N)cc21	MST1 (Homo sapiens, UniProt Q13043)	IC50	< 0.01 µM
CC(C)(C#N)c1ccc(-c2cnc(N)c(-c3ccc4c(=O)[nH]ccc4c3)n2)cc1	MST1 (Homo sapiens, UniProt Q13043)	IC50	< 0.01 µM
CN1CCc2cc(-c3nc(-c4ccc(S(=O)(=O)N(C)C5CC5)cc4)cnc3N)ccc2C1=O	MST1 (Homo sapiens, UniProt Q13043)	IC50	< 0.05 µM
CC1(C#N)CCc2cc(-c3cnc(N)c(-c4ccc5c(c4)CCNC5=O)c3)ccc21 (stereo not drawn)	MST1 (Homo sapiens, UniProt Q13043)	IC50	< 0.01 µM
CCN(CC1CC1)S(=O)(=O)c1ccc(-c2cnc(N)c(-c3ccc4c(c3)CCNC4=O)n2)cc1	MST1 (Homo sapiens, UniProt Q13043)	IC50	< 0.01 µM
C[C@H]1CNc2cc(-c3cc(-c4ccc(S(=O)(=O)NC5CC5)cc4)cnc3N)ccc2C(=O)N1	MST1 (Homo sapiens, UniProt Q13043)	IC50	< 0.01 µM
CNS(=O)(=O)c1ccc(-c2cnc(N)c(-c3ccc(C(N)=O)cc3)c2)cc1	MST1 (Homo sapiens, UniProt Q13043)	IC50	< 0.15 µM
Nc1ncc(-c2ccc(S(=O)(=O)NC3CC3)cc2)cc1-c1ccc2c(c1)C1(CC1)CNC2=O	MST1 (Homo sapiens, UniProt Q13043)	IC50	< 0.01 µM
CCN(C)S(=O)(=O)c1ccc(-c2cnc(N)c(-c3ccc4c(c3)CCNC4=O)n2)nc1	MST1 (Homo sapiens, UniProt Q13043)	IC50	< 0.01 µM
Nc1ncc(-c2ccc(S(=O)(=O)NC3CC3)cc2)nc1-c1ccc2c(c1)NCCNC2=O	MST1 (Homo sapiens, UniProt Q13043)	IC50	< 0.01 µM
Nc1ncc(-c2ccc(S(=O)(=O)NC3CC3)cc2)nc1-c1cc2c(cn1)C(=O)NCC2	MST1 (Homo sapiens, UniProt Q13043)	IC50	< 0.01 µM
N#CCn1cc(-c2cnc(N)c(-c3ccc4c(c3)CCNC4=O)n2)cn1	MST1 (Homo sapiens, UniProt Q13043)	IC50	< 0.05 µM
Nc1ncc(-c2ccc(S(=O)(=O)CC3CC3)cc2)nc1-c1ccc2c(c1)CCNC2=O	MST1 (Homo sapiens, UniProt Q13043)	IC50	< 0.01 µM
CCS(=O)(=O)c1ccc(-c2cnc(N)c(-c3ccc4c(c3)CCNC4=O)c2)cc1	MST1 (Homo sapiens, UniProt Q13043)	IC50	< 0.05 µM
CN(C1CC1)S(=O)(=O)c1ccc(-c2cnc(N)c(-c3ccc4c(c3)OC[C@@H](COCc3ccccc3)NC4=O)c2)cc1	MST1 (Homo sapiens, UniProt Q13043)	IC50	< 0.01 µM
CN(CC(F)F)S(=O)(=O)c1ccc(-c2cnc(N)c(-c3ccc4c(c3)CCNC4=O)n2)cc1	MST1 (Homo sapiens, UniProt Q13043)	IC50	< 0.01 µM
Cc1cc(-c2cnc(N)c(-c3ccc4c(c3)CCNC4=O)c2)ncc1S(=O)(=O)NC1CC1	MST1 (Homo sapiens, UniProt Q13043)	IC50	< 0.01 µM
N#Cc1ccc(-c2cnc(N)c(-c3cc4c(cn3)C(=O)NCC4)n2)cc1	MST1 (Homo sapiens, UniProt Q13043)	IC50	< 0.01 µM
CCN(C)S(=O)(=O)c1ccc(-c2cnc(N)c(-c3ccc4c(c3)CCCNC4=O)n2)cc1	MST1 (Homo sapiens, UniProt Q13043)	IC50	< 0.01 µM
Nc1ncc(-c2ccc(C3(O)CCOCC3)cc2)nc1-c1ccc2c(c1)CCNC2=O	MST1 (Homo sapiens, UniProt Q13043)	IC50	< 0.01 µM
CCN(CC)S(=O)(=O)c1ccc(-c2cnc(N)c(-c3ccc4c(=O)[nH]oc4c3)c2)cc1	MST1 (Homo sapiens, UniProt Q13043)	IC50	< 0.15 µM
CC(C)(C#N)c1ccc(-c2cnc(N)c(-c3ccc4c(c3)CCNC4=O)n2)cc1	MST1 (Homo sapiens, UniProt Q13043)	IC50	< 0.01 µM
CN(C1CC1)S(=O)(=O)c1ccc(-c2cnc(N)c(C#Cc3ccnc(O)c3)n2)cc1	MST1 (Homo sapiens, UniProt Q13043)	IC50	< 0.05 µM
CN(C)c1nc(-c2cnc(N)c(-c3ccc4c(c3)CCNC4=O)c2)cs1	MST1 (Homo sapiens, UniProt Q13043)	IC50	< 0.05 µM
CC(=O)N1CC(C)(C)c2cc(-c3nc(-c4ccc(S(=O)(=O)N(C)C5CC5)cc4)cnc3N)ccc21	MST1 (Homo sapiens, UniProt Q13043)	IC50	< 0.01 µM
N#Cc1ccc(-c2cnc(N)c(-c3ccc4c(c3)CCNC4=O)n2)cc1	MST1 (Homo sapiens, UniProt Q13043)	IC50	< 0.01 µM
N#CC1(c2ccc(-c3cnc(N)c(-c4ccc5c(c4)CCNC5=O)n3)cc2)CCCC1	MST1 (Homo sapiens, UniProt Q13043)	IC50	< 0.01 µM
Nc1ncc(-c2ccc(S(=O)(=O)NC3CC3)cc2)cc1-c1ccc2c(c1)CCCNC2=O	MST1 (Homo sapiens, UniProt Q13043)	IC50	< 0.01 µM
CN(C1CC1)S(=O)(=O)c1ccc(-c2cnc(N)c(-c3ccc4c(c3)CCCNC4=O)c2)cc1	MST1 (Homo sapiens, UniProt Q13043)	IC50	< 0.01 µM
Nc1ncc(-c2ccc(C(=O)NCc3ccccc3)cc2)cc1-c1ccc(C(=O)NO)cc1	MST1 (Homo sapiens, UniProt Q13043)	IC50	< 0.15 µM
N#CC1(c2ccc(-c3cnc(N)c(-c4ccc5c(c4)C4(CC4)NC5=O)c3)cc2)CCOCC1	MST1 (Homo sapiens, UniProt Q13043)	IC50	< 0.01 µM
CC(C)(c1ccc(-c2cnc(N)c(-c3ccc4c(c3)CCNC4=O)c2)cc1)N1CCOCC1	MST1 (Homo sapiens, UniProt Q13043)	IC50	< 0.01 µM
CN(C)S(=O)(=O)N1CC=C(c2cnc(N)c(-c3ccc4c(c3)CCNC4=O)c2)CC1	MST1 (Homo sapiens, UniProt Q13043)	IC50	< 0.05 µM

Sourced from patent US8440652B2
